# Tested on: SU-DHL10
# Protocol: cells
# Condition: Homo sapiens, SU-DHL10, 72 h
Exercise: state measured IC50 for each of the compounds provided.
// note: answer is a bare numeric in µM

(Q) What measured IC50 is associated with Cc1cc(C)c(CNC(=O)c2cc(-c3ccc(N4CCN(CCCCCC(=O)NO)CC4)nc3)cc3c2cnn3C(C)C)c(=O)[nH]1 on SU-DHL10?
(A) 15.3

(Q) What measured IC50 is associated with CCN(c1cc(-c2ccc(N3CCN(CCCCCCCCC(=O)NO)CC3)nc2)cc(C(=O)NCc2c(C)cc(C)[nH]c2=O)c1C)C1CCOCC1 on SU-DHL10?
(A) 1.87

(Q) What measured IC50 is associated with CC[C@@H](C)n1cc(C)c2c(C(=O)NCc3c(C)cc(C)[nH]c3=O)cc(-c3ccc(N4CCNCC4)nc3)cc21 on SU-DHL10?
(A) 7.22

(Q) What measured IC50 is associated with CC[C@@H](C)n1cc(C)c2c(C(=O)NCc3c(C)cc(C)[nH]c3=O)cc(-c3ccc(N4CCN(CCCCCCCCC(=O)NO)CC4)nc3)cc21 on SU-DHL10?
(A) 2.02

(Q) What measured IC50 is associated with Cc1cc(C)c(CNC(=O)c2cc(-c3ccc(N4CCN(CCCCC(=O)NO)CC4)nc3)cc3c2cnn3C(C)C)c(=O)[nH]1 on SU-DHL10?
(A) 17.5

----------
# System: SU-DHL10
# Protocol: cells
# Condition: Homo sapiens, SU-DHL10, 72 h
Exercise: state measured pIC50 for each of the compounds provided.
Kindly note that pIC50 refers to -log10 of the concentration in mol/L and answer with the value alone.

(Q) Could you tell me which pIC50 is on file for Cc1cc(C)c(CNC(=O)c2cc(-c3ccc(N4CCN(C(=O)OC(C)(C)C)CC4)nc3)cc(NCCCCCCCC(=O)NO)c2C)c(=O)[nH]1 ?
(A) 5.82

(Q) Could you tell me which pIC50 is on file for Cc1cc(C)c(CNC(=O)c2cc(-c3ccc(N4CCN(CCCCCCCCCC(=O)NO)CC4)nc3)cc3c2cnn3C(C)C)c(=O)[nH]1 ?
(A) 5.60

(Q) Could you tell me which pIC50 is on file for Cc1cc(C)c(CNC(=O)c2cc(-c3ccc(N4CCN(CCCCCCCC(=O)NO)CC4)nc3)cc3c2cnn3C(C)C)c(=O)[nH]1 ?
(A) 5.80

(Q) Could you tell me which pIC50 is on file for Cc1cc(C)c(CNC(=O)c2cc(-c3ccc(N4CCN(CCCCCCC(=O)NO)CC4)nc3)cc3c2cnn3C(C)C)c(=O)[nH]1 ?
(A) 5.70

(Q) Could you tell me which pIC50 is on file for Cc1cc(C)c(CNC(=O)c2cc(-c3ccc(N4CCN(C(=O)OC(C)(C)C)CC4)nc3)cc(NC(=O)CCCCC(=O)NO)c2C)c(=O)[nH]1 ?
(A) 4.84

----------
# Target of assay: Protein deacetylase HDAC6 (Homo sapiens, UniProt Q9UBN7)
# Sequence (Q9UBN7 whole entry): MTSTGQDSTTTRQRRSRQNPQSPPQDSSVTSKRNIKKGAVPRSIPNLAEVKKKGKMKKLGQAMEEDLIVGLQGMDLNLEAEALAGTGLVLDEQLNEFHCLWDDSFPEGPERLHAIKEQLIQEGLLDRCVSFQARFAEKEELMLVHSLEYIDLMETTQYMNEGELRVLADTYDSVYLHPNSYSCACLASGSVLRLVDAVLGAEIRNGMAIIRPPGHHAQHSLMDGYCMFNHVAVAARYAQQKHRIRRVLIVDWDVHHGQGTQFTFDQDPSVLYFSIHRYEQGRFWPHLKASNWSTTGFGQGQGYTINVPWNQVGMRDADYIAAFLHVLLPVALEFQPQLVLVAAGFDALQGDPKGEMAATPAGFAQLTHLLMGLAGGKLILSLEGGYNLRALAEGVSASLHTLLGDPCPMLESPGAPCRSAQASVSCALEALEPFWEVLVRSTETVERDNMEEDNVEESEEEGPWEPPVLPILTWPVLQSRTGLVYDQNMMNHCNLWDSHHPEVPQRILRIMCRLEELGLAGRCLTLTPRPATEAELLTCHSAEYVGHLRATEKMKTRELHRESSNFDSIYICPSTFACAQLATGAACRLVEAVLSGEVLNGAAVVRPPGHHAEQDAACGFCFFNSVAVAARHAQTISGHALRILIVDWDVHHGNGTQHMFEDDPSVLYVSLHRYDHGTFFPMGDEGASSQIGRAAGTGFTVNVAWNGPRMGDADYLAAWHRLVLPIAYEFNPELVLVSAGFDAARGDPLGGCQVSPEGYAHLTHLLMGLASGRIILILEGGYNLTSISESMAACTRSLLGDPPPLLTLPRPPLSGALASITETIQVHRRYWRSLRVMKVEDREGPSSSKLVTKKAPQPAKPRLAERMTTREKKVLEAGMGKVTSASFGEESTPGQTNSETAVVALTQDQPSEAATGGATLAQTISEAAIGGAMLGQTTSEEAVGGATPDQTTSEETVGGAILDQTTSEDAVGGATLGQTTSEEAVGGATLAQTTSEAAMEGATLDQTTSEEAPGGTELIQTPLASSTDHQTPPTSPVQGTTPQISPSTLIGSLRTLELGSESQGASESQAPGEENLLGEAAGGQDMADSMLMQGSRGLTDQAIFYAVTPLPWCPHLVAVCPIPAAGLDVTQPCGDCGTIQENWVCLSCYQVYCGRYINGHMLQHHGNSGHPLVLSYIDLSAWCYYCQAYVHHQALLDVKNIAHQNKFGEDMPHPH
# Protocol: Inhibition of HDAC6 (unknown origin) preincubated for 5 mins followed by substrate addition and measured after 30 mins by multimode microplate reader analysis
pIC50: −log10 of the molar value.
Label TRUE when pIC50 is at or above 6; anything below gets FALSE.

(Q) For this compound, is measured pIC50 6 or higher? Cc1cc(C)c(CNC(=O)c2cc(-c3ccc(N4CCN(C(=O)OC(C)(C)C)CC4)nc3)cc(NC(=O)CCCC(=O)NO)c2C)c(=O)[nH]1
(A) FALSE

(Q) For this compound, is measured pIC50 6 or higher? Cc1cc(C)c(CNC(=O)c2cc(-c3ccc(N4CCN(C(=O)CCCCC(=O)NO)CC4)nc3)cc3c2cnn3C(C)C)c(=O)[nH]1
(A) FALSE

(Q) For this compound, is measured pIC50 6 or higher? Cc1cc(C)c(CNC(=O)c2cc(-c3ccc(N4CCN(CCCCCCCC(=O)NO)CC4)nc3)cc3c2cnn3C(C)C)c(=O)[nH]1
(A) TRUE

(Q) For this compound, is measured pIC50 6 or higher? CC[C@@H](C)n1cc(C)c2c(C(=O)NCc3c(C)cc(C)[nH]c3=O)cc(-c3ccc(N4CCN(CCCCCCCCC(=O)NO)CC4)nc3)cc21
(A) FALSE

(Q) For this compound, is measured pIC50 6 or higher? Cc1cc(C)c(CNC(=O)c2cc(-c3ccc(N4CCN(C(=O)OC(C)(C)C)CC4)nc3)cc(NC(=O)CCCCC(=O)NO)c2C)c(=O)[nH]1
(A) FALSE

(Q) For this compound, is measured pIC50 6 or higher? Cc1cc(C)c(CNC(=O)c2cc(-c3ccc(NC(=O)CCCCCCC(=O)NO)cc3)cc3c2cnn3C(C)C)c(=O)[nH]1
(A) TRUE

(Q) For this compound, is measured pIC50 6 or higher? Cc1cc(C)c(CNC(=O)c2cc(-c3ccc(N4CCN(C(=O)CCCCCCC(=O)NO)CC4)nc3)cc3c2cnn3C(C)C)c(=O)[nH]1
(A) TRUE

(Q) For this compound, is measured pIC50 6 or higher? Cc1cc(C)c(CNC(=O)c2cc(-c3ccc(N4CCN(C(=O)OC(C)(C)C)CC4)nc3)cc(NCCCCCCCC(=O)NO)c2C)c(=O)[nH]1
(A) FALSE

(Q) For this compound, is measured pIC50 6 or higher? Cc1cc(C)c(CNC(=O)c2cc(-c3ccc(N4CCN(Cc5ccc(C(=O)NO)o5)CC4)nc3)cc3c2cnn3C(C)C)c(=O)[nH]1
(A) FALSE

(Q) For this compound, is measured pIC50 6 or higher? CCN(c1cc(-c2ccc(N3CCN(CCCCCCCCC(=O)NO)CC3)nc2)cc(C(=O)NCc2c(C)cc(C)[nH]c2=O)c1C)C1CCOCC1
(A) FALSE

(Q) For this compound, is measured pIC50 6 or higher? Cc1cc(C)c(CNC(=O)c2cc(-c3ccc(N4CCN(CCCCCCCCC(=O)NO)CC4)nc3)cc3c2cnn3C(C)C)c(=O)[nH]1
(A) TRUE

(Q) For this compound, is measured pIC50 6 or higher? Cc1cc(C)c(CNC(=O)c2cc(-c3ccc(N4CCN(C(=O)CCCCCC(=O)NO)CC4)nc3)cc3c2cnn3C(C)C)c(=O)[nH]1
(A) TRUE

----------
# Target of assay: Histone deacetylase 7 (Homo sapiens)
# Sequence (Q8WUI4 whole entry): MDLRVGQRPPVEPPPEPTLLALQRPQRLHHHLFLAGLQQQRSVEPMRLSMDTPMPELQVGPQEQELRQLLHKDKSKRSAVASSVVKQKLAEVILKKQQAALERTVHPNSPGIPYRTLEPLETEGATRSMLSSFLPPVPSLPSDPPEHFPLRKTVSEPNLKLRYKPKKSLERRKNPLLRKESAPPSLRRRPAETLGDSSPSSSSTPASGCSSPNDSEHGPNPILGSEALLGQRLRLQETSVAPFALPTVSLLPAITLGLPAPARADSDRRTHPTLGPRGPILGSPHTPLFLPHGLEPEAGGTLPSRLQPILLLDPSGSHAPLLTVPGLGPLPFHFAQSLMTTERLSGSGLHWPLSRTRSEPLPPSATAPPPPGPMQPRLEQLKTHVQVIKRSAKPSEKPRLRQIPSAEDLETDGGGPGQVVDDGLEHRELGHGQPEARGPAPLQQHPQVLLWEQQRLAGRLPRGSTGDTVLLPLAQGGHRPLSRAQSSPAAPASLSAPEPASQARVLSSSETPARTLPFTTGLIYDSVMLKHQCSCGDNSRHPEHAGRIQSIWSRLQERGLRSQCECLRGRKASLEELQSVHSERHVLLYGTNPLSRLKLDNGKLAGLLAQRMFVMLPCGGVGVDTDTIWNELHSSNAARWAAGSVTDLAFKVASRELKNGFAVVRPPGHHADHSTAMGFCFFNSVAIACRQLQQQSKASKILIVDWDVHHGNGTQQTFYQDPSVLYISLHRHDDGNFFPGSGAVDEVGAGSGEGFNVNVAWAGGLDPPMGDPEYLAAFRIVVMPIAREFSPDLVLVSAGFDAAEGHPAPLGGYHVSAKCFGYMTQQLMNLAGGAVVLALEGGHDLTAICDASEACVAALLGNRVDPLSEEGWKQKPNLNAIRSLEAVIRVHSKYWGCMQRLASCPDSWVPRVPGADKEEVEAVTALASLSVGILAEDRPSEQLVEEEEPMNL
# Protocol: Inhibition of N-terminal GST-fusion tagged recombinant human HDAC7 (518 to 991 residues) expressed in insect cells using trifluoroacetyl lysine as substrate incubated for 2 hrs by Multimode microplate reader analysis
Endpoint name: IC50 (µM)
// note: answer is a bare numeric in µM

(Q) Could you tell me which IC50 is on file for Cc1cc(C)c(CNC(=O)c2cc(-c3ccc(N4CCN(c5ncc(C(=O)NO)cn5)CC4)nc3)cc3c2cnn3C(C)C)c(=O)[nH]1 ?
(A) 8.19
